- experiment description: qHTS assay to identify small molecule agonists of the vitamin D receptor (VDR) signaling pathway - cell viability counter screen (AID 743224); also: nearly all actives have a fitted effect of over 50% in size
- assay context: VDR-bla HEK293T viability, CellTiter-Glo luminescence, 16 h; series mostly up to 62.6 µM
Records with an inconclusive call do not appear. The source made the active and inactive calls. Calls follow the shape of the dose curve; as a rule, active = well fitted cell-killing curve with a large enough effect in the repeat runs; inconclusive = weak or mixed curves, or effect the other way; inactive = no such curve, though single readings can be large or run the other way.
Labels: active, inactive

[
  {
    "compound": "O=C1NC(=O)C(c2ccccc2)(c2ccccc2)N1",
    "label": "inactive"
  },
  {
    "compound": "CN1CCC[C@H]1c1cccnc1",
    "label": "inactive"
  },
  {
    "compound": "C=CCc1ccc(O)c(OC)c1",
    "label": "inactive"
  },
  {
    "compound": "CC1(C)S[C@@H]2[C@H](NC(=O)[C@H](N)c3ccccc3)C(=O)N2[C@H]1C(=O)O",
    "label": "inactive"
  },
  {
    "compound": "CC(C)NCC(O)c1ccc(O)c(O)c1 (stereo not given)",
    "label": "inactive"
  },
  {
    "compound": "C[C@](N)(Cc1ccc(O)c(O)c1)C(=O)O",
    "label": "inactive"
  },
  {
    "compound": "Cc1cccc(C)c1",
    "label": "inactive"
  },
  {
    "compound": "Cn1c(=O)c2c(ncn2C)n(C)c1=O",
    "label": "inactive"
  },
  {
    "compound": "Cc1ccc(S(=O)(=O)O)cc1",
    "label": "inactive"
  },
  {
    "compound": "CCCc1cc(=O)[nH]c(=S)[nH]1",
    "label": "inactive"
  },
  {
    "compound": "CCCCOC(=O)c1ccc(O)cc1",
    "label": "inactive"
  },
  {
    "compound": "CC12CCC(CC1)C(C)(C)O2",
    "label": "inactive"
  },
  {
    "compound": "Oc1ccccc1",
    "label": "inactive"
  },
  {
    "compound": "O=c1[nH]cnc2c1ncn2[C@H]1CC[C@@H](CO)O1",
    "label": "inactive"
  },
  {
    "compound": "CCCCC1(COC(=O)CCC(=O)O)C(=O)N(c2ccccc2)N(c2ccccc2)C1=O",
    "label": "inactive"
  },
  {
    "compound": "O=C1NS(=O)(=O)c2ccccc21",
    "label": "inactive"
  },
  {
    "compound": "OC[C@H]1O[C@H](O[C@]2(CCl)O[C@H](CCl)[C@@H](O)[C@@H]2O)[C@H](O)[C@@H](O)[C@H]1Cl",
    "label": "inactive"
  },
  {
    "compound": "CC(=O)CC(c1ccccc1)c1c(O)c2ccccc2oc1=O (stereo not given)",
    "label": "inactive"
  },
  {
    "compound": "Nc1ccc2c(c1)CN1C(=O)c3ccccc3C1=N2",
    "label": "inactive"
  },
  {
    "compound": "O=S1(=O)OC(c2ccc(O)cc2)(c2ccc(O)cc2)c2ccccc21",
    "label": "inactive"
  },
  {
    "compound": "CC(C)C(=O)Nc1ccc([N+](=O)[O-])c(C(F)(F)F)c1",
    "label": "inactive"
  },
  {
    "compound": "CCOC(N)=O",
    "label": "inactive"
  },
  {
    "compound": "CCN(Cc1c(F)cccc1Cl)c1c([N+](=O)[O-])cc(C(F)(F)F)cc1[N+](=O)[O-]",
    "label": "inactive"
  },
  {
    "compound": "Cc1ncc([N+](=O)[O-])n1C",
    "label": "inactive"
  },
  {
    "compound": "CCOc1ccc(NC(C)=O)cc1",
    "label": "inactive"
  },
  {
    "compound": "NS(=O)(=O)c1cc2c(cc1Cl)NCNS2(=O)=O",
    "label": "inactive"
  },
  {
    "compound": "CN(C)CCOC(C)(c1ccccc1)c1ccccn1 (stereo not given)",
    "label": "inactive"
  },
  {
    "compound": "Nc1c(N=Nc2ccc(-c3ccc(N=Nc4cc(S(=O)(=O)O)c5ccccc5c4N)cc3)cc2)cc(S(=O)(=O)O)c2ccccc12",
    "label": "inactive"
  },
  {
    "compound": "Cc1cn([C@H]2C=C[C@@H](CO)O2)c(=O)[nH]c1=O",
    "label": "inactive"
  },
  {
    "compound": "C/C=C/C=C/C(=O)O",
    "label": "inactive"
  },
  {
    "compound": "Cc1ncc([N+](=O)[O-])n1CCO",
    "label": "inactive"
  },
  {
    "compound": "O=C(O)c1ccccc1",
    "label": "inactive"
  },
  {
    "compound": "COc1ccc2c(c1)c(CC(=O)O)c(C)n2C(=O)c1ccc(Cl)cc1",
    "label": "inactive"
  },
  {
    "compound": "C1=CC2C3C=CC(C3)C2C1 (stereo not given)",
    "label": "inactive"
  },
  {
    "compound": "CC(=O)CCC(=O)O",
    "label": "inactive"
  },
  {
    "compound": "CCCCCCCC(=O)OCC(COC(=O)CCCCCCC)OC(=O)CCCCCCC",
    "label": "inactive"
  },
  {
    "compound": "Nc1c2c(nc3ccccc13)CCCC2",
    "label": "inactive"
  },
  {
    "compound": "O=C1O[C@H]([C@@H](O)CO)C(O)=C1O",
    "label": "inactive"
  },
  {
    "compound": "Cc1cc(C)nc(NS(=O)(=O)c2ccc(N)cc2)n1",
    "label": "inactive"
  },
  {
    "compound": "COc1ccc(OC(F)(F)F)cc1CN[C@H]1CCCN[C@H]1c1ccccc1",
    "label": "active"
  },
  {
    "compound": "O=C(O)CC(O)C(=O)O (stereo not given)",
    "label": "inactive"
  },
  {
    "compound": "CCCC[P+](CCCC)(CCCC)CCCC",
    "label": "inactive"
  },
  {
    "compound": "Cc1cc(=O)oc2cc(O)ccc12",
    "label": "inactive"
  },
  {
    "compound": "O=C1OC2(c3ccccc31)c1cc(Br)c(O)c(Br)c1Oc1c2cc(Br)c(O)c1Br",
    "label": "inactive"
  },
  {
    "compound": "F[B-](F)(F)F",
    "label": "inactive"
  }
]
